// provenance: the supplement of paper PMC7224384

Test system: MDA-MB-453
Test: drug sensitivity score (DSS), single agent (DSS (weighted AUC score)); higher = more sensitive (stronger viability decrease); extreme values may be limits of the assay
Conditions: BLU9931 0 nM; 72 h
Lab note: class by drug sensitivity score, see bottom: < 2; middle: ≥ 2 and < 9; top: ≥ 9

Q) Exam item: assign S=c1[nH]cnc2nc[nH]c12 [Mercaptopurine] to the correct category.
A) top

Q) Another compound: CCN1CCN(Cc2ccc(Nc3ncc(F)c(-c4cc(F)c5nc(C)n(C(C)C)c5c4)n3)nc2)CC1 [Abemaciclib]
A) middle

Q) Another compound: CCOCc1nc2c(N)nc3ccccc3c2n1CC(C)(C)O [Resiquimod]
A) bottom

Q) Another compound: Nc1nc(OCc2cc(Br)cs2)c2[nH]cnc2n1 [Lomeguatrib]
A) bottom

Q) Another compound: COc1cccc2c1C(=O)c1c(O)c3c(c(O)c1C2=O)C[C@@](O)(C(=O)CO)C[C@@H]3O[C@H]1C[C@H](N)[C@H](O)[C@H](C)O1 [Doxorubicin]
A) middle

Q) Another compound: CCN(CC)CCCC(C)Nc1c2ccc(Cl)cc2nc2ccc(OC)cc12 (stereo unspecified) [Mepacrine]
A) top

Q) Another compound: CC(C)C[C@@H](C(=O)N[C@H](C(=O)OC1CCCC1)c1ccccc1)[C@H](O)C(=O)NO [Tosedostat]
A) top

Q) Another compound: CCOc1ccccc1-n1c(C(C)N2CCN(C(=O)COc3ccc(Cl)cc3)CC2)nc2ccccc2c1=O (stereo unspecified) [Erastin]
A) middle

Q) Another compound: O=C(NOCCO)c1ccc2cncn2c1Nc1ccc(I)cc1F [GDC-0623]
A) bottom

Q) Another compound: Nc1nc2cc(-c3ccc4ncc(C(=O)N5CCOCC5)n4c3)ccc2o1 [Serabelisib]
A) middle

Q) Another compound: CCCC(CCC)C(=O)O [Valproic acid]
A) bottom

Q) Another compound: CC1(C)C(C(=O)Nc2ccc(S(=O)(=O)c3ccc(NC(=O)C4C(C)(C)C4(C)C)cc3)cc2)C1(C)C [BRD7116]
A) middle

Q) Another compound: C[C@H]1C[C@@H](n2c(Nc3ccc(OC(F)(F)F)cc3)nc3cc(CCC(=O)O)ccc32)CC(C)(C)C1
A) bottom

Q) Another compound: CN(C)C1CCN(C(=O)c2ccc(NC(=O)Nc3ccc(-c4nc(N5CCOCC5)nc(N5CCOCC5)n4)cc3)cc2)CC1 [Gedatolisib]
A) top

Q) Another compound: Cc1cc(C(C)Nc2ccccc2)c2nc(N3CCOCC3)cc(=O)n2c1 (stereo unspecified) [TGX-221]
A) middle

Q) Another compound: CC[C@@H]1C(=O)N(C)c2cnc(Nc3ccc(C(=O)N[C@H]4CC[C@H](N5CCN(CC6CC6)CC5)CC4)cc3OC)nc2N1C(C)C [Volasertib]
A) top

Q) Another compound: CC[C@]1(O)C[C@@H]2CN(CCc3c([nH]c4ccccc34)[C@@](C(=O)OC)(c3cc4c(cc3OC)N(C)[C@H]3[C@@](O)(C(=O)OC)[C@H](OC(C)=O)[C@]5(CC)C=CCN6CC[C@]43[C@@H]65)C2)C1 [Vinblastine]
A) top

Q) Another compound: O=C(CCNC(=O)c1ccc(OC(F)(F)F)cc1)N[C@@H]1CCCc2ccccc21 [ML390]
A) middle

Q) Another compound: O=C(O)c1ccc(CN2CCC(CN[C@@H]3C[C@H]3c3ccccc3)CC2)cc1
A) bottom

Q) Another compound: CCC1=C[C@@H]2CN(C1)Cc1c([nH]c3ccccc13)[C@@](C(=O)OC)(c1cc3c(cc1OC)N(C)[C@H]1[C@@](O)(C(=O)OC)[C@H](OC(C)=O)[C@]4(CC)C=CCN5CC[C@]31[C@@H]54)C2 [Vinorelbine]
A) top

Q) Another compound: O=c1sn(-c2cccc3ccccc23)c(=O)n1Cc1ccccc1 [Tideglusib]
A) bottom

Q) Another compound: CN1CCN(c2ccc3nc(-c4c(N)c5c(F)cccc5[nH]c4=O)[nH]c3c2)CC1 [Dovitinib]
A) bottom

Q) Another compound: COc1c(C)cnc(Cn2cnc3c(Cl)nc(N)nc32)c1C [BIIB021]
A) top

Q) Another compound: C=CC(=O)Nc1cc2c(Nc3ccc(F)c(Cl)c3)ncnc2cc1OCCCN1CCOCC1 [Canertinib]
A) top

Q) Another compound: CN(C)C(=N)NC(=N)N [Metformin]
A) bottom

Q) Another compound: Cc1ccc(NC(=O)c2ccc(CN3CCN(C)CC3)cc2)cc1Nc1nc(-c2cccnc2)cs1 [Masitinib]
A) middle
